- tgt: TRPM7 (Mus musculus, UniProt Q923J1)
- Construct: expressed in transfected cells; host or cells: HEK-293 tSA (HEK-293T) cells, transient transfection with Lipofectamine 2000
- Sequence (Q923J1 whole entry): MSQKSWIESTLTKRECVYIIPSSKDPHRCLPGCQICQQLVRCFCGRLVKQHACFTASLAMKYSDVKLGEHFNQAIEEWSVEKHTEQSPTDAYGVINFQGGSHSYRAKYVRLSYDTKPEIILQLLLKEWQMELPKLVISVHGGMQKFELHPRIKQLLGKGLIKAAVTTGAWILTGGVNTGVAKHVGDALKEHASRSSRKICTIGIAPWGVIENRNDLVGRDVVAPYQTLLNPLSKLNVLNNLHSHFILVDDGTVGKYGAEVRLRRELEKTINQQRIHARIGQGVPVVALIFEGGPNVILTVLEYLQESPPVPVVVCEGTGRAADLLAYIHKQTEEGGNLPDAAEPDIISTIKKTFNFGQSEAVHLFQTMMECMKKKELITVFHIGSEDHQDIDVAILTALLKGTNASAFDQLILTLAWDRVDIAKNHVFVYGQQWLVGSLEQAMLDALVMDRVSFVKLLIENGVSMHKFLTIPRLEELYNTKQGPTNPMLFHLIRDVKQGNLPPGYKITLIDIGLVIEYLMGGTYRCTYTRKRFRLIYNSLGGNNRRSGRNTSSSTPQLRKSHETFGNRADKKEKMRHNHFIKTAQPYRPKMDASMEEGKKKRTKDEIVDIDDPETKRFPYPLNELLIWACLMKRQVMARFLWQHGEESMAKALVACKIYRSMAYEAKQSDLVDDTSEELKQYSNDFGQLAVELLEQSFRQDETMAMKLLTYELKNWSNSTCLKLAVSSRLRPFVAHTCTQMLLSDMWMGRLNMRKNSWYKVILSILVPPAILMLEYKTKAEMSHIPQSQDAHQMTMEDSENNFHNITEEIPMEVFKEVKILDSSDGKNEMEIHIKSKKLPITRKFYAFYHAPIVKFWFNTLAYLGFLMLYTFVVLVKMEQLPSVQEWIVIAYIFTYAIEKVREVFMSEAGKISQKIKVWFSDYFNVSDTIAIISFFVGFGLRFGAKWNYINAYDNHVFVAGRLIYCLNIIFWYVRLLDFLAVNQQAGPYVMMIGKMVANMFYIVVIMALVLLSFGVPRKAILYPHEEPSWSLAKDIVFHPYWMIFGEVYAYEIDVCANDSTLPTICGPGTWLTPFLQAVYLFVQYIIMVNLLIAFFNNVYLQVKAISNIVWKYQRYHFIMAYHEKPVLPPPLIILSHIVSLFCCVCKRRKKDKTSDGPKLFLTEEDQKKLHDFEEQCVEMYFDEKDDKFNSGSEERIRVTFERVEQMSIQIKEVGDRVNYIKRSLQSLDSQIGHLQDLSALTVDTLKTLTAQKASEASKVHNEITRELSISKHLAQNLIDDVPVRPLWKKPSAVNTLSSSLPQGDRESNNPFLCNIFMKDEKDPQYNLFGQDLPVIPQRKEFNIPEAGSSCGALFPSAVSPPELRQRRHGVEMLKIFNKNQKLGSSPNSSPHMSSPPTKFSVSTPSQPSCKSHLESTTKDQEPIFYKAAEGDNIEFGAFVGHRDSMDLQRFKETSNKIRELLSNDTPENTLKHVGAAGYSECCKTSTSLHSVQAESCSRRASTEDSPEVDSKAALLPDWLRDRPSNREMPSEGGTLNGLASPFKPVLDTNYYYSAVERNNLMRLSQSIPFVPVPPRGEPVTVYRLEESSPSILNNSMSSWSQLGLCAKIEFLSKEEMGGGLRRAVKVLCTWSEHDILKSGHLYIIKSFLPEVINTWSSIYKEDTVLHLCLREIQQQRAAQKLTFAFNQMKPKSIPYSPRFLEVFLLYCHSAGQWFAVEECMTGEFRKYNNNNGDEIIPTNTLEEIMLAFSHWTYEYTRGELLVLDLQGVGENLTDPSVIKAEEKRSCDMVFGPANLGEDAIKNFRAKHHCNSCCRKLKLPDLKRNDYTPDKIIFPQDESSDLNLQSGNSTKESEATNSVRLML
- assay: PI uptake cell death assay in TRPM7-expressing HEK-293 cells (type of assay from Example 1)
- Assay type: cell-based, murine
- settings: 10 μM; Table X; the lower the number, the more potent
Each record is given fulfilled if its reported Normalized ratio of PI uptake (10 μM) is strictly below 0.04. Records at or above 0.04 are given not fulfilled.

Q. Is it true that Normalized ratio of PI uptake (10 μM) reported for `COc1ccc2c(Cl)c(C3=NCCc4cc(OC)c(OC)cc43)sc2c1` is less than 0.04?
A. fulfilled

Q. Quick check: Normalized ratio of PI uptake (10 μM) of `Cc1c(Cc2cccc(Cl)c2)c(=O)oc2cc(O)cc(O)c12` under 0.04?
A. fulfilled

Q. Consider the compound `Cc1c(Cc2ccc(Cl)c(Cl)c2)c(=O)oc2cc(O)cc(O)c12` . Is its Normalized ratio of PI uptake (10 μM) strictly less than 0.04?
A. fulfilled

Q. Lab log: compare recorded Normalized ratio of PI uptake (10 μM) with 0.04; is it strictly lower for Cc1cccc2sc(C3NCCc4c(F)cccc43)c(Cl)c12 (stereo not shown) ?
A. not fulfilled

Q. Quick check: Normalized ratio of PI uptake (10 μM) of `CCCc1c(Cc2cccc(Cl)c2)c(=O)[nH]c2cc(O)cc(O)c12` under 0.04?
A. not fulfilled

Q. API: query returns whether the compound falls strictly under 0.04 in Normalized ratio of PI uptake (10 μM). Query: COc1cc2c(cc1OC)C(c1sc3cc(C(F)(F)F)ccc3c1Cl)NCC2 (stereo not shown)
A. fulfilled

Q. Given `Cc1ccc(N(Cc2cccnc2)C(=O)c2sc3ccccc3c2Cl)c(C)c1` , is recorded Normalized ratio of PI uptake (10 μM) strictly lower than 0.04?
A. not fulfilled

Q. is_below(Normalized ratio of PI uptake (10 μM), 0.04) for `O=S(=O)(Nc1sc2ccccc2c1Cl)c1ccc(F)cc1` ?
A. not fulfilled

Q. Confirm or reject: Normalized ratio of PI uptake (10 μM) of `COc1cc2ccnc(-c3sc4ccccc4c3Cl)c2cc1OC` lies strictly below 0.04
A. not fulfilled

Q. Given O=C(NC1CCCc2ccccc21)c1sc2ccccc2c1Cl (stereo not shown) , is recorded Normalized ratio of PI uptake (10 μM) strictly lower than 0.04?
A. not fulfilled

Q. In plain terms, does COc1ccc2c(c1)C(c1sc3cccc(C)c3c1Cl)NCC2 (stereo not shown) come in under 0.04 for Normalized ratio of PI uptake (10 μM)?
A. not fulfilled

Q. I'd appreciate it if you could check whether `CCCc1c(Cc2ccc(Cl)c(Cl)c2)c(=O)[nH]c2cc(OC)cc(OC)c12` has Normalized ratio of PI uptake (10 μM) smaller than 0.04.
A. not fulfilled

Q. Is the reported Normalized ratio of PI uptake (10 μM) for `COc1cc(OC)c2c(C)c(Cc3ccc(F)cc3)c(=O)[nH]c2c1` strictly below 0.04?
A. fulfilled

Q. Threshold test, Normalized ratio of PI uptake (10 μM) < 0.04: `Cc1ccc2c(c1)CCCN2C(=O)c1sc2ccccc2c1F`
A. not fulfilled

Q. is_below(Normalized ratio of PI uptake (10 μM), 0.04) for `Fc1cccc2c1CCN=C2c1sc2ccccc2c1Cl` ?
A. not fulfilled

Q. For this compound, is Normalized ratio of PI uptake (10 μM) lower than 0.04? COc1cccc2c1CCNC2c1sc2ccccc2c1Cl (stereo not shown)
A. fulfilled

Q. Quick check: does CN1CCc2cc(F)ccc2C1c1sc2ccccc2c1Cl (stereo not shown) have Normalized ratio of PI uptake (10 μM) under 0.04?
A. not fulfilled

* * *

- tgt: TRPM7 (Mus musculus, UniProt Q923J1)
- Construct: expressed in transfected cells; host or cells: HEK-293 tSA (HEK-293T) cells, transient transfection with Lipofectamine 2000
- assay: PI uptake cell death assay in TRPM7-expressing HEK-293 cells (type of assay from Example 1)
- Assay type: cell-based, murine
- settings: 10 μM; Table Y, commercially available compounds
Please note: satisfied applies when Normalized ratio of PI uptake (10 μM) is 0.1 or greater, and not satisfied applies otherwise.

Q. Decide: Normalized ratio of PI uptake (10 μM) of COc1ccc(-c2n[nH]cc2CN(C)Cc2cc3ccccc3s2)cc1F [Ambcb42783454 #13, reference compound] >= 0.1?
A. satisfied

Q. Decide: is the reported value of Normalized ratio of PI uptake (10 μM) for O=C(c1sc2ccccc2c1Cl)N(Cc1ccccc1)c1ccccc1 [MCC1879 #5, reference compound] equal to or greater than 0.1?
A. not satisfied

Q. Could you please find out whether COc1ccc2cc(C(=O)N(C)Cc3ccccc3N3CCCC3)[nH]c2c1 [T6899266 #9, reference compound] has Normalized ratio of PI uptake (10 μM) that meets 0.1 or exceeds it?
A. not satisfied

Q. Please indicate if the recorded Normalized ratio of PI uptake (10 μM) for CC1c2ccsc2CCN1C(=O)c1c(Cl)c2ccccc2n1C (stereo not shown) [T6857127 #7, reference compound] meets or exceeds 0.1.
A. not satisfied

Q. Evaluate CCCc1c(Cc2c(F)cccc2Cl)c(=O)oc2cc(O)ccc12 [RJF01538SC #14, reference compound] : Normalized ratio of PI uptake (10 μM) at minimum 0.1?
A. not satisfied

Q. Hi team, for Cc1c(Cc2ccc(F)cc2)c(=O)oc2cc(O)ccc12 [RJF01910SC #10, reference compound] , is the recorded Normalized ratio of PI uptake (10 μM) at or above 0.1?
A. satisfied

* * *

- tgt: TRPM7 (Mus musculus)
- Construct: expressed in transfected cells; host or cells: HEK-293 tSA (HEK-293T) cells, transient transfection with Lipofectamine 2000
- assay: PI uptake cell death assay in TRPM7-expressing HEK-293 cells (type of assay from Example 1)
- Type: cell-based, murine
- settings: 10 μM; Table X; the lower the number, the more potent
assay-endpoint: Normalized ratio of PI uptake (10 μM)
Simply state the number, no unit and no words.

Entry under test: COc1ccc(C)c(N(Cc2ccc3ccccc3n2)C(=O)c2sc3ccccc3c2Cl)c1 [Compound 105] . Its Normalized ratio of PI uptake (10 μM) was 0.17

Normalized ratio of PI uptake (10 μM) for Cc1c(Cc2c(F)cccc2Cl)c(=O)[nH]c2cc(O)cc(O)c12 [Compound 133] is 0.123

The reported value for CCCc1c(Cc2ccc(Cl)c(Cl)c2)c(=O)[nH]c2cc(O)cc(O)c12 [Compound 136] in terms of Normalized ratio of PI uptake (10 μM) is 0.238

The value of Normalized ratio of PI uptake (10 μM) measured for the compound COc1ccc(C)c(N(CC(=O)c2cccs2)C(=O)c2sc3ccccc3c2Cl)c1 [Compound 103] turned out to be 0.312

Recorded result, Cc1cccc2sc(C3=NCCc4c(F)cccc43)c(Cl)c12 [Compound 117] , Normalized ratio of PI uptake (10 μM): 0.07

Form field Normalized ratio of PI uptake (10 μM), entry Cc1ccc(N(Cc2ccc3ccccc3n2)C(=O)c2sc3ccccc3c2Cl)c(C)c1 [Compound 104] : 0.094

The value of Normalized ratio of PI uptake (10 μM) measured for the compound COc1cc(OC)c2c(C)c(Cc3ccc(Cl)c(Cl)c3)c(=O)[nH]c2c1 [Compound 130] turned out to be 0.06

// sample Cc1c(Cc2c(Cl)cccc2Cl)c(=O)[nH]c2cc(O)cc(O)c12 [Compound 137] , its Normalized ratio of PI uptake (10 μM) was 0.296

Form: compound = COc1ccc(C)c(N(Cc2cccc(C)n2)C(=O)c2sc3ccccc3c2Cl)c1 [Compound 102] ; Normalized ratio of PI uptake (10 μM) = 0.059

The compound listed as COc1cc2c(cc1OC)C(c1sc3cc(OC)c(OC)cc3c1Cl)NCC2 (stereo not shown) [Compound 126] shows Normalized ratio of PI uptake (10 μM) equal to 0.059

Field Normalized ratio of PI uptake (10 μM) (entry Cc1c(Cc2cccc(Cl)c2)c(=O)[nH]c2cc(O)cc(O)c12 [Compound 140] ) reads 0.062

Briefly, Normalized ratio of PI uptake (10 μM) measured for Fc1cccc2c1CCNC2c1sc2ccccc2c1Cl (stereo not shown) [Compound 123] : 0.128

Record CCN1CCc2cc(OC)c(OC)cc2C1c1sc2ccccc2c1Cl (stereo not shown) [Compound 129] , field Normalized ratio of PI uptake (10 μM): 0.07

* * *

- tgt: TRPM7 (Mus musculus)
- Construct: expressed in transfected cells; host or cells: HEK-293 tSA (HEK-293T) cells, transient transfection with Lipofectamine 2000
- assay: PI uptake cell death assay in TRPM7-expressing HEK-293 cells (type of assay from Example 1)
- Type: cell-based, murine
- settings: 5 μM; Table X; the lower the number, the more potent in protecting against cell death
Entry class follows Normalized ratio of PI uptake (5 μM): bucket A: < 0.07; bucket B: ≥ 0.07 and < 0.4; bucket C: ≥ 0.4

Q. Could you place `COc1ccc(C)c(N(Cc2ccccn2)C(=O)c2sc3ccccc3c2Cl)c1` in its proper category? Many thanks.
A. bucket B

Q. Categorize the following entry: `COc1cc(OC)c2c(C)c(Cc3ccc(Cl)c(Cl)c3)c(=O)[nH]c2c1`
A. bucket B

Q. Exam item: assign `O=S(=O)(Nc1sc2ccccc2c1Cl)c1ccc(F)cc1` to the correct category.
A. bucket B

Q. Dear colleague, I would appreciate it if you could identify the bin for `CCCc1c(Cc2ccc(Cl)c(Cl)c2)c(=O)[nH]c2cc(O)cc(O)c12` and reply at your convenience.
A. bucket C

Q. Just checking, what class would you give `Cc1cccc2sc(C3=NCCc4ccc(Cl)cc43)c(Cl)c12` here?
A. bucket C

Q. Place this compound in its band: CCN1CCc2cc(OC)c(OC)cc2C1c1sc2ccccc2c1Cl (stereo not drawn)
A. bucket A

Q. Which class does `Cc1ccc(N(Cc2cccnc2)C(=O)c2sc3ccccc3c2Cl)c(C)c1` fall in?
A. bucket A

Q. Form: Item = `Cc1c(Cc2c(F)cccc2Cl)c(=O)[nH]c2cc(O)cc(O)c12` ; Class = ?
A. bucket B
